System: Endothelin-1 receptor (Rattus norvegicus, UniProt P26684)
Sequence (P26684 whole entry): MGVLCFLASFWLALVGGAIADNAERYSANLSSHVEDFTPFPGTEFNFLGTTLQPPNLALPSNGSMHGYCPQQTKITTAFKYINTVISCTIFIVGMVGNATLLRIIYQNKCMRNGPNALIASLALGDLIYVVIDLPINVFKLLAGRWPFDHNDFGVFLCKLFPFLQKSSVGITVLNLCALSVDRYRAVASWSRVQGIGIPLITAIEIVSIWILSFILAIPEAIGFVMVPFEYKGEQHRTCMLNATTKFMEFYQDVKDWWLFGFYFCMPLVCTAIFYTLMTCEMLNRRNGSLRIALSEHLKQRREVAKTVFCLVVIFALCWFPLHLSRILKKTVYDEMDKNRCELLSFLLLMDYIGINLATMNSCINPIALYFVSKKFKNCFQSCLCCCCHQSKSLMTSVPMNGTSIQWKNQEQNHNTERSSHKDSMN
Test Summary: Ability to inhibit binding of [125I]ET1 to membranes prepared from A10 rat thoracic aorta smooth muscle Endothelin A receptor
Type: tissue-based
Where a SMILES comes first, the peptide text is derived from it.
Measurement Label: log10(Ki) (log10 of the value in nM)

>>> number("CC(C)C[C@@H]1NC(=O)[C@@H](C(C)C)NC(=O)[C@@H]2CCCN2C(=O)[C@@H](CC(=O)O)NC(=O)[C@@H](Cc2c[nH]c3ccccc23)NC1=O [BQ-123] (HELM PEPTIDE1{L.[dW].[dD].P.[dV]}$PEPTIDE1,PEPTIDE1,1:R1-5:R2$$$V2.0)")
1.60
>>> number("Cc1noc(NS(=O)(=O)c2ccccc2-c2ccc(OCc3ccccc3)cc2)c1C")
2.28
>>> number("COc1cc(CC(C)C)ccc1-c1ccccc1S(=O)(=O)Nc1onc(C)c1C")
1.87
>>> number("Cc1noc(NS(=O)(=O)c2ccccc2-c2ccc(OC(C)C)cc2)c1C")
1.23
>>> number("Cc1noc(NS(=O)(=O)c2ccccc2Oc2ccccc2)c1C")
3.32
>>> number("CNc1cc(CC(C)C)ccc1-c1ccccc1S(=O)(=O)Nc1onc(C)c1C")
1.15
>>> number("Cc1noc(NS(=O)(=O)c2ccccc2-c2ccc(CC(C)C)cc2NC=O)c1C")
1.23
>>> number("Cc1noc(NS(=O)(=O)c2ccccc2-c2ccc(C(C)(C)C)cc2)c1C")
1.79
>>> number("CCCCc1ccc(-c2ccccc2S(=O)(=O)Nc2onc(C)c2C)cc1")
1.57
>>> number("Cc1noc(NS(=O)(=O)c2ccccc2-c2ccc(CC(C)C)cc2CO)c1C")
1.30
>>> number("COc1ccc(S(=O)(=O)Nc2onc(C)c2C)c(-c2ccc(CC(C)C)cc2)c1")
2.57
>>> number("CCCc1ccc(-c2ccccc2S(=O)(=O)Nc2onc(C)c2C)cc1")
1.45
>>> number("Cc1noc(NS(=O)(=O)c2ccccc2-c2ccc(CC(C)C)cc2N(C)C)c1C")
2.52
>>> number("Cc1noc(NS(=O)(=O)c2ccccc2F)c1C")
3.67
>>> number("Cc1noc(NS(=O)(=O)c2ccccc2-c2ccc(CC(C)C)cc2NCC(=O)O)c1C")
1.95
>>> number("Cc1noc(NS(=O)(=O)c2ccc(NC(=O)CN)cc2-c2ccc(CC(C)C)cc2)c1C")
3.08
>>> number("CCNc1cc(CC(C)C)ccc1-c1ccccc1S(=O)(=O)Nc1onc(C)c1C")
0.80
>>> number("Cc1noc(NS(=O)(=O)c2ccccc2-c2ccc(N(C)C)cc2)c1C")
1.73
>>> number("Cc1noc(NS(=O)(=O)c2ccc(NC(=O)c3ccccc3)cc2-c2ccc(CC(C)C)cc2)c1C")
3.76
